Origin of values: patent US20260174875A1

test_target: human GLP-1 receptor (hGLP-1R) (Homo sapiens)
Construct: expressed in transfected cells
Sequence (P43220 24-463): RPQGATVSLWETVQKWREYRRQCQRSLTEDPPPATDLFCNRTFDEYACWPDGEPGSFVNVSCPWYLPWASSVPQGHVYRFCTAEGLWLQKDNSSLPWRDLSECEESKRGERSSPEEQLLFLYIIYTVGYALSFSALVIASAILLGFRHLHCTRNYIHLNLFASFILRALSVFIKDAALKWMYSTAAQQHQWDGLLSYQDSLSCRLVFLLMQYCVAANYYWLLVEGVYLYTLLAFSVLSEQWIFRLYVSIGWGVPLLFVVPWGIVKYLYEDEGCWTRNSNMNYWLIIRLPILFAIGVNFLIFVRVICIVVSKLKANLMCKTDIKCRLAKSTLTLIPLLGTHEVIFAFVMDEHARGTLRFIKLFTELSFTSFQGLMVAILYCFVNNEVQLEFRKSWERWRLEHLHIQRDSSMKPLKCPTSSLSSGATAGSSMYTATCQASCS
assay_text: GLP-1 receptor assay, method A (CRE-luciferase reporter, BHK cells)
Assay type: cell-based
assay_setup: hGLP-1R Potency, 1% HSA, EC50, method A, in the presence of 1% HSA
pEC50: −log10 of the molar value. Numbered stars: 1 amine (or outer) side, 2 acyl side, 3 side chain; on linkers, the order of the positions; unused ones are H or OH. Square brackets hold non-standard residues; d marks the D form. Side chains are listed from the residue outwards. * marks the point of attachment. C18 diacid = O=C(O)CCCCCCCCCCCCCCCCC(=O)*; C16 diacid = O=C(O)CCCCCCCCCCCCCCC(=O)*; γGlu = O=C(O)[C@H](CCC(=O)[*:2])N[*:1]; AEEA = NCCOCCOCC(=O)O; Aib = CC(C)(N)C(=O)O
Decide using pEC50: a value greater than or equal to 10 is Criterion met, a smaller one is Criterion not met.

{"substance": "Y[Aib]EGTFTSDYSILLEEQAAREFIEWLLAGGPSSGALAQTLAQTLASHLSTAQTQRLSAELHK([AEEA-AEEA-γGlu-C16 diacid])LATLPRTETGSGSP-NH2 [Compound 59]", "label_class": "Criterion met"}
{"substance": "Y[Aib]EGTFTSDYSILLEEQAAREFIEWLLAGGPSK([AEEA-AEEA-γGlu-C18 diacid])GGQAPGQAPGEASHLSTAQTQRLSAELHELATLPRTETGSGSP-NH2 [Compound 38]", "label_class": "Criterion not met"}
{"substance": "H[Aib]HGTFTSDYSILLEEQAAREFIEWLLAGGPSSGAGQAPGQAPLASHLSTAQTQRLSAELHK([AEEA-AEEA-γGlu-C18 diacid])LATLPRTETGSGSP-NH2 [Compound 93]", "label_class": "Criterion met"}

###

test_target: human GIP receptor (hGIPR) (Homo sapiens)
Construct: expressed in transfected cells
Sequence (P48546 22-466): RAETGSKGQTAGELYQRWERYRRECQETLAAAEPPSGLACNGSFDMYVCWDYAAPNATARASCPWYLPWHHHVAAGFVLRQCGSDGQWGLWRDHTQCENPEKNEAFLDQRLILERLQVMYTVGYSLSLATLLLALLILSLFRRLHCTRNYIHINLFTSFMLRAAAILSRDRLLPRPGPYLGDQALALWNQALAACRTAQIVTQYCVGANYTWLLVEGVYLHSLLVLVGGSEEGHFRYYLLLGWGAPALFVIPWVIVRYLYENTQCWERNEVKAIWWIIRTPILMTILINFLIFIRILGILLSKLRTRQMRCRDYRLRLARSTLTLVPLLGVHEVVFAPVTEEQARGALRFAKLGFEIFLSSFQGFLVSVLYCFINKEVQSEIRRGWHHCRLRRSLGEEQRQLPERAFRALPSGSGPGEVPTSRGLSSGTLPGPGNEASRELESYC
assay_text: GIP receptor assay, method A (CRE-luciferase reporter, BHK cells)
Type: cell-based
assay_setup: method A, absence of HSA; read-out: hGIPR Potency, no HSA, EC50
Numbered stars: 1 amine (or outer) side, 2 acyl side, 3 side chain; on linkers, the order of the positions; unused ones are H or OH. Square brackets hold non-standard residues; d marks the D form. Side chains are listed from the residue outwards. * marks the point of attachment. C20 diacid = O=C(O)CCCCCCCCCCCCCCCCCCC(=O)*; C18 diacid = O=C(O)CCCCCCCCCCCCCCCCC(=O)*; C16 diacid = O=C(O)CCCCCCCCCCCCCCC(=O)*; γGlu = O=C(O)[C@H](CCC(=O)[*:2])N[*:1]; AEEA = NCCOCCOCC(=O)O; Aib = CC(C)(N)C(=O)O
So basically, if EC50 comes in under 3 pM it's yes (1), and if it's 3 pM or more it's no (0).

{"substance": "Y[Aib]EGTFTSDYSILLEEQAAREFIEWLLAGGPSSGEASHLSTAQTQRLSAELHK([AEEA-AEEA-γGlu-C18 diacid])LATLPRTETGSGSP-NH2 [Compound 50]", "label_class": "yes (1)"}
{"substance": "H[Aib]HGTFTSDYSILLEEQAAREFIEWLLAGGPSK([AEEA-AEEA-γGlu-C18 diacid])GALAQTLGTNEASHLSTAQTQRLSAELHELATLPRTETGSGSP-NH2 [Compound 45]", "label_class": "yes (1)"}
{"substance": "H[Aib]HGTFTSDYSILLEEQAAREFIEWLLAGGPSSGAGQAPGQAPGASHLSTAQTQRLSAK([AEEA-AEEA-γGlu-C18 diacid])LHRLATLPRTETGSGSP-NH2 [Compound 78]", "label_class": "no (0)"}
{"substance": "Y[Aib]EGTFTSDYSILLEEQAAREFIEWLLAGGPSSK([γGlu-C20 diacid])APPPSGGGEASELSTAALGRLSAELHRLATLPRTETGSGSP-NH2 [Compound 42]", "label_class": "no (0)"}
{"substance": "H[Aib]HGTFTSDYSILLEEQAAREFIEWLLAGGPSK([AEEA-AEEA-γGlu-C18 diacid])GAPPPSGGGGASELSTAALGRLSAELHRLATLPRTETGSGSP-NH2 [Compound 14]", "label_class": "no (0)"}
{"substance": "H[Aib]HGTFTSDYSILLEEQAAREFIEWLLAGGPSSGAGQAPGQAPGASHLSTAQTQRLSAELHRLK([AEEA-AEEA-γGlu-C18 diacid])TLPRTETGSGSP-NH2 [Compound 91]", "label_class": "no (0)"}
{"substance": "Y[Aib]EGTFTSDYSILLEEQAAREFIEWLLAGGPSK([AEEA-AEEA-γGlu-C18 diacid])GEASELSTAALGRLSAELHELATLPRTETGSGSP-NH2 [Compound 26]", "label_class": "yes (1)"}
{"substance": "Y[Aib]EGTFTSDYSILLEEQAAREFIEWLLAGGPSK([AEEA-AEEA-γGlu-C18 diacid])GEASHLSTAQTARLSAELHELATLPRTETGSGSP-NH2 [Compound 35]", "label_class": "yes (1)"}
{"substance": "Y[Aib]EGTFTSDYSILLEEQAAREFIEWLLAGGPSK([AEEA-AEEA-γGlu-C18 diacid])GEASHLSTAQTQRLSAELHELATLPRTETGSGSP-NH2 [Compound 34]", "label_class": "yes (1)"}
{"substance": "H[Aib]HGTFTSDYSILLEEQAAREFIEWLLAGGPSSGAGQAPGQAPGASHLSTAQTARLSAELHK([AEEA-AEEA-γGlu-C20 diacid])LATLPRTETGSGSP-NH2 [Compound 104]", "label_class": "no (0)"}
{"substance": "H[Aib]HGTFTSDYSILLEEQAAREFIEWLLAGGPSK([AEEA-AEEA-γGlu-C16 diacid])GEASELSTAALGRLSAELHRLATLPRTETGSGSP-NH2 [Compound 17]", "label_class": "no (0)"}
